# Test system: Amyloid-β peptide release (Aβ42), HEK cells overexpressing APP (HEK-APP)
# procedureSummary: Amyloid-β peptide release (Aβ42) assay, AlphaLISA on supernatant of HEK-APP cells
# Type: cell-based
# conditionDetails: Homo sapiens, HEK293, 24 h incubation with compound, read-out: Ab42 IC50 Ranges
parameterMeasured: IC50

> print(dat)
                                   molecule  parametermeasured            val
1  Cc1ncc2oc(-c3ccc(NC(=O)Cc4ccc(Cl)c(C(F)(F)F)c4)cc3)nn12               IC50    1 to 2.2 µM
2  Cc1ccc(C)c(CC(=O)Nc2ccc(-c3nn4c(C)ncc4o3)cc2)c1               IC50    0.5 to 1 µM
3  Cc1ncc2oc(-c3ccc(NC(=O)Cc4ccc(-c5ccccc5)cc4)cc3)nn12               IC50  0.1 to 0.5 µM
4  Cc1ncc2oc(-c3ccc(Nc4ccn(Cc5ccc(Cl)cc5)n4)cc3)nn12               IC50    1 to 2.2 µM
5    Cc1ncc2sc(-c3nnc(NCc4ccc(F)cc4)o3)nn12               IC50    0.5 to 1 µM
6  Cc1ncc2oc(-c3ccc(NC(=O)Cc4ccccc4C(F)(F)F)cn3)nn12               IC50    1 to 2.2 µM

Reported IC50 for Cc1ncc2sc(C(=O)NCc3cccc4ccccc34)nn12 was 0.5 to 1 µM

Reported IC50 for Cc1ncc2oc(-c3ccc(NC(=O)C(C)c4cccc(C(F)(F)F)c4)cc3)nn12 (stereo not drawn) was 1 to 2.2 µM

Reported IC50 for Cc1ccc(C)c(CC(=O)Nc2ccc(-c3nn4c(C)ncc4o3)nc2)c1 was 1 to 2.2 µM

---

Examples of compounds with documented IC50 follow.
# Test system: Amyloid-β peptide release (Aβ42), HEK cells overexpressing APP (HEK-APP)
# procedureSummary: Amyloid-β peptide release (Aβ42) assay, AlphaLISA on supernatant of HEK-APP cells
# Assay type: cell-based
# conditionDetails: Homo sapiens, HEK293, 24 h incubation with compound, read-out: Ab42 IC50 Ranges

Solved entries:
> print(dat)
                                   compound             val
1  Cc1ncc2oc(-c3ccc(Nc4nc5n(n4)CCCC5c4ccc(Cl)cc4Cl)cc3)nn12 (stereo not drawn)  500 to 1000 nM
2  Cc1cc(-c2nn3c(C)ncc3o2)ccc1NC(=O)Cc1ccc(Cl)cc1  500 to 1000 nM
3  Cc1ncc2sc(-c3nnc(NCc4ccc(Cl)c(Cl)c4)o3)nn12   100 to 500 nM

Reported IC50 for Cc1ncc2oc(-c3ccc(NC(=O)Cc4cccc5ccccc45)cc3)nn12 was 500 to 1000 nM

Reported IC50 for Cc1ncc2oc(-c3ccc(NC(=O)Cc4cccc(OCc5ccccc5)c4)cc3)nn12 was 1000 to 2200 nM

Reported IC50 for Cc1ncc2sc(C(=O)NC(c3ccc(Cl)cc3)C3CC3)nn12 (stereo not drawn) was 1000 to 2200 nM

Reported IC50 for Cc1ncc2sc(C(=O)N3CCCC3c3ccc(Cl)cc3)nn12 (stereo not drawn) was 100 to 500 nM

Reported IC50 for COc1cc(C(=O)NCc2ccc(Cl)c(Cl)c2)ccc1-c1nn2c(C)ncc2o1 was 1000 to 2200 nM

Reported IC50 for COc1cc(NC(=O)Cc2cccc3ccccc23)ccc1-c1nn2c(C)ncc2s1 was 100 to 500 nM

---

# Tested on: Amyloid-β peptide release (Aβ42), HEK cells overexpressing APP (HEK-APP)
# procedureSummary: Amyloid-β peptide release (Aβ42) assay, AlphaLISA on supernatant of HEK-APP cells
# Type: cell-based
# conditionDetails: Homo sapiens, HEK293, 24 h incubation with compound, read-out: Ab42 IC50 Ranges
Examples of compounds with documented IC50 follow.

Solved entries:
> print(dat)
                                        mol                        targetortestsystem  parametermeasured              val
1  Cc1ncc2oc(-c3ccc(NC(=O)Nc4ccccc4C(F)(F)F)cc3)nn12  Amyloid-β peptide release (Aβ42), HEK cells overexpressing APP (HEK-APP)               IC50   500 to 1000 nM
2  Cc1ncc2oc(-c3ccc(C(=O)NCc4cccc5ccccc45)cc3)nn12  Amyloid-β peptide release (Aβ42), HEK cells overexpressing APP (HEK-APP)               IC50   500 to 1000 nM
3  Cc1ncc2oc(-c3ccc(NC(=O)Cc4ccc(Cl)cc4Cl)cc3)nn12  Amyloid-β peptide release (Aβ42), HEK cells overexpressing APP (HEK-APP)               IC50   500 to 1000 nM
4  Cc1ncc2oc(-c3ccc(NC(=O)Cc4cc(F)ccc4C(F)(F)F)cc3)nn12  Amyloid-β peptide release (Aβ42), HEK cells overexpressing APP (HEK-APP)               IC50  1000 to 2200 nM

From here, focus on the item given below.
The measured IC50 that Cc1ncc2oc(-c3ccc(NC(=O)Cc4cccc(F)c4F)cn3)nn12 showed for Amyloid-β peptide release (Aβ42), HEK cells overexpressing APP (HEK-APP) is 1000 to 2200 nM

---

# Test system: Amyloid-β peptide release (Aβ42), HEK cells overexpressing APP (HEK-APP)
# procedureSummary: Amyloid-β peptide release (Aβ42) assay, AlphaLISA on supernatant of HEK-APP cells
# Format: cell-based
# conditionDetails: Homo sapiens, HEK293, 24 h incubation with compound, read-out: Ab42 IC50 Ranges
Examples of molecules with documented IC50 follow.

Solved entries:
> print(dat)
                                   molecule              val
1  Cc1ncc2sc(C(=O)N3CCCC3c3cccc(Br)c3)nn12 (stereo not drawn) [Example 123]  1000 to 2200 nM
2  Cc1ncc2oc(-c3ccc(NC(=O)Cc4ccc(OC(F)(F)F)cc4)cn3)nn12 [Example 11]    100 to 500 nM
3  Cc1cc(-c2nn3c(C)ncc3o2)ccc1NC(=O)C(C)c1cccc(C(F)(F)F)c1 (stereo not drawn) [Example 46]   500 to 1000 nM
4  Cc1ncc2oc(-c3ccc(NC(=O)Cc4cccc(C(F)(F)F)c4)cc3)nn12 [Example 3]  1000 to 2200 nM
5  Cc1ncc2sc(C(=O)N3CCC[C@H]3c3ccc(Br)cc3)nn12 [Example 114]  1000 to 2200 nM

Reported IC50 for Cc1ncc2sc(-c3ccc(C(=O)NCc4cccc5ccccc45)cc3)nn12 [Example 127] was 500 to 1000 nM

Reported IC50 for Cc1ncc2oc(-c3ccc(NC(=O)Cc4ccccc4OC(F)(F)F)cn3)nn12 [Example 81] was 1000 to 2200 nM

Reported IC50 for Cc1ncc2oc(-c3ccc(NC(=O)NCc4ccccc4Cl)cc3)nn12 [Example 54] was 1000 to 2200 nM

Reported IC50 for Cc1ccccc1CC(=O)Nc1ccc(-c2nn3c(C)ncc3o2)cc1 [Example 60] was 1000 to 2200 nM

---

# System: Amyloid-β peptide release (Aβ42), HEK cells overexpressing APP (HEK-APP)
# procedureSummary: Amyloid-β peptide release (Aβ42) assay, AlphaLISA on supernatant of HEK-APP cells
# Format: cell-based
# conditionDetails: Homo sapiens, HEK293, 24 h incubation with compound, read-out: Ab42 IC50 Ranges
parameterMeasured: IC50

> print(dat)
                                   molecule              val
1  Cc1ncc2oc(-c3ccc(NC(=O)Cc4cccc5ccccc45)cn3)nn12  1000 to 2200 nM
2  Cc1cccc(CNc2ccnc(Nc3ccc(-c4nn5c(C)ncc5o4)cc3)n2)c1  1000 to 2200 nM
3  Cc1ncc2oc(-c3ccc(NC(=O)Cc4ccc(C(F)(F)F)cc4)cc3)nn12  1000 to 2200 nM
4  Cc1ncc2oc(-c3ccc(NC(=O)Cc4ccc(Cl)c(Cl)c4)cc3)nn12    100 to 500 nM
5      Cc1ncc2sc(-c3nnc(NCc4ccccc4F)o3)nn12  1000 to 2200 nM

From here, focus on the item given below.
Reported IC50 for Cc1ncc2sc(C(=O)N(C)Cc3ccccc3)nn12 was 1000 to 2200 nM

---

Examples of molecules with documented pIC50 follow.
# System: Amyloid-β peptide release (Aβ42), HEK cells overexpressing APP (HEK-APP)
# procedureSummary: Amyloid-β peptide release (Aβ42) assay, AlphaLISA on supernatant of HEK-APP cells
# Assay type: cell-based
# conditionDetails: Homo sapiens, HEK293, 24 h incubation with compound, read-out: Ab42 IC50 Ranges
pIC50: −log10 of the molar value.

Solved entries:
> print(dat)
                                   molecule  parametermeasured           val
1  Cc1nc(C)n2nc(-c3ccc(C(=O)NCc4ccccc4C(F)(F)F)cc3)oc12              pIC50  5.66 to 6.00
2  COc1cc(NC(=O)Cc2c(Cl)cc(C(F)(F)F)cc2Cl)ccc1-c1nn2c(C)ncc2o1              pIC50  6.30 to 7.00
3   Cc1ncc2sc(C(=O)NCCc3c[nH]c4ccccc34)nn12              pIC50  6.00 to 6.30

Reported pIC50 for Cc1cc(-c2nn3c(C)ncc3o2)ccc1NC(=O)Cc1ccc(OC(F)(F)F)cc1 was 6.00 to 6.30

Reported pIC50 for Cc1ncc2sc(C(=O)N3CCCC(c4ccc(F)cc4)C3)nn12 (stereo not drawn) was 5.66 to 6.00

Reported pIC50 for Cc1ncc2sc(C(=O)N3CCCCC3c3ccccc3Cl)nn12 (stereo not drawn) was 6.00 to 6.30

Reported pIC50 for Cc1ncc2oc(-c3ccc(NC(=O)C(c4ccccc4)c4ccccc4)cn3)nn12 was 6.00 to 6.30

Reported pIC50 for COc1cc(NC(=O)Cc2ccccc2C(F)(F)F)ccc1-c1nn2c(C)ncc2o1 was 5.66 to 6.00

Reported pIC50 for Cc1ncc2sc(C(=O)NCc3ccccc3OCC(F)(F)F)nn12 was > 7.00

Measured values drawn from patent US9932354B2 for this set.
